The values you see were collected from PubChem BioAssay (NCATS).

experiment: Quantitative highthroughput screen to assess conditional lethalithy of NOMO1 cells grown in Human Plasma-Like Medium with dialyzed fetal bovine serum (HPLM+ds) (AID 1963878); further: nearly all actives have a fitted effect of over 35% in size
run conditions: NOMO1 AML cells in HPLM+ds, CellTiter-Glo viability, 48 h; series mostly up to 45.8 µM
Inconclusive results are not listed. Active and inactive are the calls of the source. The call rests on the fitted dose curve; in most records, active means well fitted cell-killing curve with a large enough effect; inconclusive means small, poorly fitted or top-dose-only effect, or effect the other way; inactive means no such curve, though single readings can be large or run the other way.
Permitted responses: T (active), F (inactive)

Examples with answers:
>>> category_label("COC(=O)[C@@H](N)CCCN=C(N)N[N+](=O)[O-]")
"F"
>>> category_label("C[C@]12CC[C@H](O)CC1=CC[C@H]1[C@H]3CCC(=O)[C@@]3(C)CC[C@@H]12")
"F"
>>> category_label("CCCC(C)(COC(N)=O)COC(=O)NC(C)C (stereo not drawn)")
"F"

Lookup: I would be grateful if you could indicate the recorded call for COC1=CC(C)=C[C@@H](C)[C@@H](O)[C@@H](C)CC(C)=CC=C[C@H](OC)[C@H]([C@@H](C)[C@@H](O)[C@H](C)[C@@]2(O)C[C@@H](O)[C@H](C)[C@@H](C(C)C)O2)OC1=O .
Found: T

Lookup: I would be grateful if you could indicate the recorded call for CCNC(=O)CC1N=C(c2ccc(Cl)cc2)c2cc(OC)ccc2-n2c(C)nnc21 (stereo not drawn) .
Found: F

Lookup: I would be grateful if you could indicate the recorded call for O=C1C=CC[C@@H]2[C@H]3CCCN4CCC[C@@H](CN12)[C@@H]34 .
Found: F

Lookup: I would be grateful if you could indicate the recorded call for O=C(Nc1ccncc1)C(=O)c1cn(Cc2ccc(Cl)cc2)c2ccccc12 .
Found: T

Lookup: I would be grateful if you could indicate the recorded call for Cc1cc(SCc2sc(-c3ccc(C(F)(F)F)c(F)c3)nc2C)ccc1OCC(=O)O .
Found: F

Lookup: I would be grateful if you could indicate the recorded call for C[C@]12CC[C@@H]3c4ccc(OC(=O)N(CCCl)CCCl)cc4CC[C@H]3[C@@H]1CC[C@@H]2OP(=O)(O)O .
Found: T

Lookup: I would be grateful if you could indicate the recorded call for C[C@@]12OC(=O)[C@]1([C@@H](O)[C@@H]1C=CCCC1)NC(=O)[C@H]2CCCl .
Found: T

Lookup: I would be grateful if you could indicate the recorded call for CC1=C2C[C@@H]3[C@@H](CC=C4C[C@@H](O)CC[C@@]43C)[C@@H]2CC[C@]12O[C@H]1C[C@H](C)CN[C@H]1[C@H]2C .
Found: F

Lookup: I would be grateful if you could indicate the recorded call for CN(C)[C@@H]1C(=O)C(C(N)=O)=C(O)[C@@]2(O)C(=O)C3=C(O)c4c(O)cccc4[C@@](C)(O)[C@H]3C[C@@H]12 .
Found: F

Lookup: I would be grateful if you could indicate the recorded call for COc1ccc2c(c[n+](C)c3c4cc5c(cc4ccc23)OCO5)c1OC .
Found: T
